# PROTOCOL NOTES: modulators of HCV replicon luciferase signal, primary screen, HCV replication inhibitor project, Huh7 cells, luciferase reporter (AID 1109);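 note: huh7 hepatoma cells harbouring a luciferase neomycin HCV replicon reporter; luciferase luminescence as measure of HCV replicon replication; test concentration not given here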
# CONDITION LABEL: 48 h, higher = more signal

| COMPOUND | z-score |
| --- | --- |
| CN1C(=O)C2C=CC(C(O)c3ccc(I)cc3)N(N(c3ccccc3)c3ccccc3)C2C1=O (stereo unspecified) | -1.55 |
| [N-]=[N+]=Nc1ccccc1C[C@@]1(C(=O)NCC(O)CO)N=C(c2ccc(OCCCO)cc2)O[C@@H]1c1ccccc1N=[N+]=[N-] (stereo partly specified) | -3.13 |
| COc1cccc(C)c1NC(=O)O[C@H]1[C@H](OC(=O)Nc2ccccc2-c2ccccc2)[C@@H](OC(=O)Nc2ccccc2-c2ccccc2)[C@@H](OC)O[C@@H]1CO | -3.72 |
| COC(=O)C(CC#Cc1ccc2c(c1)[C@]1(C(=O)N2)[C@H](C(=O)NC[C@H](O)c2ccccc2)[C@H]2C(=O)O[C@H](c3ccccc3)[C@H](c3ccccc3)N2[C@@H]1c1ccc(O)cc1)C(=O)OC | -1.7 |
| C=CCNC(=O)[C@H]1[C@@H]2C(=O)O[C@@H](c3ccccc3)[C@@H](c3ccccc3)N2[C@@H](c2ccc(OCCO)cc2)[C@]12C(=O)Nc1ccc(C#Cc3ccc(OC)cc3)cc12 | -2.18 |
| COc1ccc(C(=O)Nc2ccc(CN3C(=O)[C@@]4(O[C@@H](CC(=O)N(CCO)Cc5ccccc5)[C@H]([Si](C)(C)c5ccc(OC)cc5)[C@H]4C)c4ccccc43)cc2)cc1 | -3.92 |

Origin of measurements: PubChem BioAssay
